protocol-text: yeast display, Sf9 membrane polyspecificity reagent, FACS + sequencing; frameworks hold sequencing errors
assay-readout: polyreactivity (PSR sort gate)

biopolymer-sequence	result
QVHLVESGGGLVQAGVSLRLSCAASGRIFEENAMGWYRQAPGKERELVAAITYSGGSTYYADSVKGRFTISRDNAKNTVYLQMNSLKPEDTAVYYCAATVDLVYIDYDYWGQGTQVTVSS	low polyreactivity
QGQLVESGGGLVQAGGSLLLSCAASGRTFYNYYTMGLYRQAPGKERELVAAISRSGSTNYADSVKGRFTISRDTAKNTVYLQMNSLKPEDTAVYYCARSYRSDGSRFGYWGQGTQVTVSS	low polyreactivity
QVQLVESGGGLVQAGGSLRLSCAASGSILEGNAMGWYRQAPGKERELVASISGDGSTNYADSVKGRFTISRDNAKNTVYLQMNSLKPEDTAVYYCAARYGRIHWKANWPEYGYWGQGTQVTVSS	low polyreactivity
QVQLVESGGGLVQAGGSLRLSCAAYGSIFETYVMGWYRQAPGKERELVAAINSGGSTNYADSVKGRFTISRDNAKNTVYLQMNSLKPEDTAVYYCNADWFTPAQPWYRYFIRYDYWGQGTQVTVSS	low polyreactivity

## Task Record request: polyreactivity (PSR sort gate) value, item QVQLVESGGGLVQAGGSLRLSCAASGSTFFVNAMGWYRQAPGKERELVAAISTSGGRTYYADSVKGRFTISRDNAKNTVYLQMNSLKPEDTAVYYCAAFLRSPKGYYYWGQGTQVTVSS
## Result high polyreactivity

## Task Record request: polyreactivity (PSR sort gate) value, item QVQLVESGGGLVQAGGSLRLSCAASGSTLVDYAMGWYRQAPGKERELVATISFRGGSTYYADSVKGRCTISRDNAKNTVYLQMNSLKPEDTAVYYCAAEYGPSLYYYYGHAAYAYGYWGQGTQVTVSS
## Result low polyreactivity

## Task Record request: polyreactivity (PSR sort gate) value, item QVQLVESGGGLVQAGGSLRLSCAASGRIIYENAMGWYRQAPGKEREFVAAITGSGGSTYYADSVKGRFTISRDNAKNTVYLQMISLKPEDTEVYYCAAPLSSYWVYIVRYGYDYWGQGTQVTVSS
## Result low polyreactivity

## Task Record request: polyreactivity (PSR sort gate) value, item QVQLVESGGGLVQAGGSLRLSCAASGSSLTYNAMGWYRQAPGKERELVAVISARGGRTYYADSVKGRFTISRDNAKNTVYLQMNSLKPEDTAVYYCAAVFYYSYYRITSGDYWGQGTQVTVSS
## Result high polyreactivity

## Task Record request: polyreactivity (PSR sort gate) value, item QVKLVESGGRLVQAGGSLRLSCAASGFTNYAMGWNRQAPGKERELVAAITLSDASTYYADSVKGRFTISRDNAKNTVYLQMNSLKPEDTAVDYCAAKGGRSKSGARALGYWGQGTHVTVSS
## Result low polyreactivity

## Task Record request: polyreactivity (PSR sort gate) value, item QVQLVESGGGLVQAGCSLRLSCAASGSIFESYAMGWSRQAPGNERELVAAITSSGDSTYYADSVKGRFTITRDNAKNTVYIQMNSLKPEDTAVYYCANRVPTYISTADWGSRYDYWGQGTQVTVSS
## Result low polyreactivity

* * *

protocol-text: yeast display, Sf9 membrane polyspecificity reagent, FACS + sequencing; frameworks hold sequencing errors
assay-readout: polyreactivity (PSR sort gate)

// known answers, use as guide
biopolymer-sequence	assay-readout	result
QVQLVESGGRLVQAGGSLRLSCAASGSTFGWNAMGWYRQAPGKETELVAAISRSGGRTYYADSVKGRFTISRDNANNTVYLQMISLKPEVTAVYYCAADRSTTGGLRGYWGQGTQVTVSS	polyreactivity (PSR sort gate)	high polyreactivity
QVQLVESGGGLVQAGGSLRLSCAASGRTFWGYAMGWYRQAPGKERELVAAISSGGDTTYADSVKGRFTISRDNAKNTVYLQMNSLKPEDTAVYYCAADRWIPVYILGADGYDYWGQGTQVTVSS	polyreactivity (PSR sort gate)	low polyreactivity
QVQLVESGGGLDQAGGSLRLSCAASGSIFGVNDMVWNRQAPGKERELVAAISGGGSTYYADSVKGRFTISRDNAKNTVYLQMNSLKPEDTAVYYCARRRTKSYTRKYDYWGQGTQVTVSS	polyreactivity (PSR sort gate)	low polyreactivity
QVQLEESGVGLVQAGGSLRLSCAASGRTFLRNAMGWYRQAPGKEMELVAAISWRGGSTYYADSVKGRFTISRDNAKNTVYLEMNSLKPEDTAVYYCNTFPSQYLWYDYWGQGTQVNVSS	polyreactivity (PSR sort gate)	high polyreactivity
QVQLVESGGGLVQAGGSLRLSCAASGRIFGTNAMGWYRQAPGKERELVAAINGSDSSTYYADSVKGRFTISRDNAKNTVYLQMNSLKPEDTAVYYCAADWDFFQQGANGAPYDYWGQGTQVTVSS	polyreactivity (PSR sort gate)	low polyreactivity

Could you now consider this next sequence?
## Task Record request: polyreactivity (PSR sort gate) value, item QVQLVESGGGLVQAGGSLRLSCAASGSTFSRYAMGWYRPAPGKERELVAAISYSGDSTYYADSVKGRFTISRDNAKNTVYLQMNSLKPEDTAVYYCNVYSHYRGYYWGQGTQVTVSS
## Result high polyreactivity

Values from the nanobody polyreactivity screen of Harvey et al. (2022)
